Sourced from paper PMC12477777

experiment: aPM in mouse urine after i.p. injection of (+)-α-pinene or (−)-α-pinene; type: in vivo, mice (C57BL/6); conditions: mouse urine collected overnight, 50 mg/kg i.p. (+)-α-pinene; 50 mg/kg
Measure: (1R)-(+)-α-Pinene (Average), proportion of aPM in mouse urine

| Molecule | Test result |
| --- | --- |
| CC1(C)C2CCC(C(=O)OC3OC(C(=O)O)C(O)C(O)C3O)C1C2 (single isomer, unassigned) [aPM4d, Dihydromyrtenic acid-GlcA] | 0.0% |
| CC1(C)C2CC1C(OC1OC(C(=O)O)C(O)C(O)C1O)C=C2C(=O)O (single isomer, unassigned) [aPM5d, Myrtenic acid-4-O-GlcA] | 0.2% |
| CC1(C)C2CC=C(C(=O)OC3OC(C(=O)O)C(O)C(O)C3O)C1C2 (single isomer, unassigned) [aPM3b, Myrtenic acid-GlcA] | 1.6% |
| CC1(C)C2CC1C(OC1OC(C(=O)O)C(O)C(O)C1O)C=C2C(=O)O (single isomer, unassigned) [aPM5a, Myrtenic acid-4-O-GlcA] | 0.0% |
| CC1(C)C2CC1C(OC1OC(C(=O)O)C(O)C(O)C1O)C=C2C(=O)O (single isomer, unassigned) [aPM5f, Myrtenic acid-4-O-GlcA] | 0.0% |
| CC1(C)C2CCC(C(=O)OC3OC(C(=O)O)C(O)C(O)C3O)C1C2 (single isomer, unassigned) [aPM4a, Dihydromyrtenic acid-GlcA] | 0.0% |
| CC1(C)C2CC=C(C(=O)OC3OC(C(=O)O)C(O)C(O)C3O)C1C2 (single isomer, unassigned) [aPM3a, Myrtenic acid-GlcA] | 0.0% |
| CC1(C)C2CC1C(OC1OC(C(=O)O)C(O)C(O)C1O)C=C2C(=O)O (single isomer, unassigned) [aPM5e, Myrtenic acid-4-O-GlcA] | 0.0% |
